Numbers sourced from the RNAGym collection of RNA variant scans (doi:10.7554/elife.80360).

Below: a set of entries, each annotated with reported self-cleavage.
B1: HDV Ribozyme (parent)
chain: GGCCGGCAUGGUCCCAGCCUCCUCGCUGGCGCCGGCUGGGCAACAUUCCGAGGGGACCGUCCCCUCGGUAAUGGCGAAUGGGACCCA

Variants of: B1
Assay: self-cleavage, relative activity (ratio to wild type); higher = more cleavage; co-transcriptional
MEASUREMENT LABEL: self-cleavage

[[record]]
var = "U79C G80A"
measurement_label = "self-cleavage"
numeric_result = 0.129

[[record]]
var = "C41G U47A"
measurement_label = "self-cleavage"
numeric_result = 1.12

[[record]]
var = "C21U A45G"
measurement_label = "self-cleavage"
numeric_result = 0.291

[[record]]
var = "G38C A43C"
measurement_label = "self-cleavage"
numeric_result = 0.26

[[record]]
var = "G25C G31A"
measurement_label = "self-cleavage"
numeric_result = 0.135

[[record]]
var = "U20G C32G"
measurement_label = "self-cleavage"
numeric_result = 0.0475

[[record]]
var = "U46A A71G"
measurement_label = "self-cleavage"
numeric_result = 0.895

[[record]]
var = "A43U C84A"
measurement_label = "self-cleavage"
numeric_result = 0.346

[[record]]
var = "G5U G53U"
measurement_label = "self-cleavage"
numeric_result = 0.268

[[record]]
var = "G1U U60G"
measurement_label = "self-cleavage"
numeric_result = 0.443

[[record]]
var = "G17U G54C"
measurement_label = "self-cleavage"
numeric_result = 0.536

[[record]]
var = "U12G G50A"
measurement_label = "self-cleavage"
numeric_result = 0.787

[[record]]
var = "C18U U20C"
measurement_label = "self-cleavage"
numeric_result = 0.0923

[[record]]
var = "A51U A78U"
measurement_label = "self-cleavage"
numeric_result = 0.282

[[record]]
var = "C22A G54A"
measurement_label = "self-cleavage"
numeric_result = 0.197

[[record]]
var = "C7U A51U"
measurement_label = "self-cleavage"
numeric_result = 1.13

[[record]]
var = "C3G C44U"
measurement_label = "self-cleavage"
numeric_result = 0.156

[[record]]
var = "G5C G6U"
measurement_label = "self-cleavage"
numeric_result = 0.185

[[record]]
var = "C48G C49A"
measurement_label = "self-cleavage"
numeric_result = 0.808

[[record]]
var = "G10A U69C"
measurement_label = "self-cleavage"
numeric_result = 0.997

[[record]]
var = "U9C A70U"
measurement_label = "self-cleavage"
numeric_result = 0.831

[[record]]
var = "C33A C41G"
measurement_label = "self-cleavage"
numeric_result = 0.104

[[record]]
var = "C3G G81A"
measurement_label = "self-cleavage"
numeric_result = 0.201

[[record]]
var = "G31C U69G"
measurement_label = "self-cleavage"
numeric_result = 0.394

[[record]]
var = "C14G G28A"
measurement_label = "self-cleavage"
numeric_result = 0.0415

[[record]]
var = "C7G G73A"
measurement_label = "self-cleavage"
numeric_result = 0.0639

[[record]]
var = "U72C G76C"
measurement_label = "self-cleavage"
numeric_result = 0.779

[[record]]
var = "G67U G82C"
measurement_label = "self-cleavage"
numeric_result = 0.182

[[record]]
var = "C3G U20A"
measurement_label = "self-cleavage"
numeric_result = 0.0755

[[record]]
var = "U20A G34C"
measurement_label = "self-cleavage"
numeric_result = 0.199

[[record]]
var = "G6A U79C"
measurement_label = "self-cleavage"
numeric_result = 0.128

[[record]]
var = "G74A C85G"
measurement_label = "self-cleavage"
numeric_result = 0.601

[[record]]
var = "U79G A83C"
measurement_label = "self-cleavage"
numeric_result = 0.204

[[record]]
var = "G2C A83U"
measurement_label = "self-cleavage"
numeric_result = 0.0791

[[record]]
var = "U46A C57G"
measurement_label = "self-cleavage"
numeric_result = 0.617

[[record]]
var = "C41U A45U"
measurement_label = "self-cleavage"
numeric_result = 0.884

[[record]]
var = "G40A G52A"
measurement_label = "self-cleavage"
numeric_result = 0.858

[[record]]
var = "C19G C62G"
measurement_label = "self-cleavage"
numeric_result = 0.0791

[[record]]
var = "C7U C13A"
measurement_label = "self-cleavage"
numeric_result = 0.124

[[record]]
var = "C18U A83G"
measurement_label = "self-cleavage"
numeric_result = 0.356

[[record]]
var = "C7G G39C"
measurement_label = "self-cleavage"
numeric_result = 0

[[record]]
var = "U20G U65A"
measurement_label = "self-cleavage"
numeric_result = 0.138

[[record]]
var = "U23A C61G"
measurement_label = "self-cleavage"
numeric_result = 1.08

[[record]]
var = "U72C G76U"
measurement_label = "self-cleavage"
numeric_result = 1.01

[[record]]
var = "G17A U46G"
measurement_label = "self-cleavage"
numeric_result = 0.229

[[record]]
var = "U9C C14U"
measurement_label = "self-cleavage"
numeric_result = 1.11

[[record]]
var = "A45C G81C"
measurement_label = "self-cleavage"
numeric_result = 0.0489

[[record]]
var = "G2U U9A"
measurement_label = "self-cleavage"
numeric_result = 0.0237

[[record]]
var = "C4A A87G"
measurement_label = "self-cleavage"
numeric_result = 0.233

[[record]]
var = "C26G G74C"
measurement_label = "self-cleavage"
numeric_result = 0.0573

[[record]]
var = "G11A G81C"
measurement_label = "self-cleavage"
numeric_result = 0.0396

[[record]]
var = "U12C G28C"
measurement_label = "self-cleavage"
numeric_result = 0

[[record]]
var = "C32U C36U"
measurement_label = "self-cleavage"
numeric_result = 0.493

[[record]]
var = "U69G C86U"
measurement_label = "self-cleavage"
numeric_result = 0.723

[[record]]
var = "C61A A70C"
measurement_label = "self-cleavage"
numeric_result = 1.01

[[record]]
var = "C13A G39C"
measurement_label = "self-cleavage"
numeric_result = 0.0554

[[record]]
var = "G40A C84A"
measurement_label = "self-cleavage"
numeric_result = 0.917

[[record]]
var = "G31A G59A"
measurement_label = "self-cleavage"
numeric_result = 0.531

[[record]]
var = "C24G C66A"
measurement_label = "self-cleavage"
numeric_result = 0.0723

[[record]]
var = "G50U G55C"
measurement_label = "self-cleavage"
numeric_result = 1.03

[[record]]
var = "C26U G38U"
measurement_label = "self-cleavage"
numeric_result = 0.616

[[record]]
var = "A56G G80A"
measurement_label = "self-cleavage"
numeric_result = 0.32

[[record]]
var = "C4U C21A"
measurement_label = "self-cleavage"
numeric_result = 0

[[record]]
var = "C7U A77C"
measurement_label = "self-cleavage"
numeric_result = 0.196

[[record]]
var = "G2C C14A"
measurement_label = "self-cleavage"
numeric_result = 0.0615

[[record]]
var = "U27A C57A"
measurement_label = "self-cleavage"
numeric_result = 0.855

[[record]]
var = "C15U C21G"
measurement_label = "self-cleavage"
numeric_result = 0.0898

[[record]]
var = "A45U G76A"
measurement_label = "self-cleavage"
numeric_result = 0.578

[[record]]
var = "C4G C33U"
measurement_label = "self-cleavage"
numeric_result = 0.123

[[record]]
var = "C36G C49A"
measurement_label = "self-cleavage"
numeric_result = 0.138

[[record]]
var = "G53C G68U"
measurement_label = "self-cleavage"
numeric_result = 0.475

[[record]]
var = "G39U G55C"
measurement_label = "self-cleavage"
numeric_result = 0.698

[[record]]
var = "C32G G80A"
measurement_label = "self-cleavage"
numeric_result = 0.0764

[[record]]
var = "A16U U65A"
measurement_label = "self-cleavage"
numeric_result = 0.831

[[record]]
var = "G1U G81A"
measurement_label = "self-cleavage"
numeric_result = 0.25

[[record]]
var = "C33U A70G"
measurement_label = "self-cleavage"
numeric_result = 0.758

[[record]]
var = "U27A G59U"
measurement_label = "self-cleavage"
numeric_result = 0.95

[[record]]
var = "U23G C36G"
measurement_label = "self-cleavage"
numeric_result = 0.252

[[record]]
var = "G40C C62U"
measurement_label = "self-cleavage"
numeric_result = 0.324

[[record]]
var = "G31C G74A"
measurement_label = "self-cleavage"
numeric_result = 0.0573

[[record]]
var = "G5U G53C"
measurement_label = "self-cleavage"
numeric_result = 0.489

[[record]]
var = "G17U C84G"
measurement_label = "self-cleavage"
numeric_result = 0.439

[[record]]
var = "A43U G73C"
measurement_label = "self-cleavage"
numeric_result = 0.43

[[record]]
var = "G17C A51U"
measurement_label = "self-cleavage"
numeric_result = 0.443

[[record]]
var = "A45U U69G"
measurement_label = "self-cleavage"
numeric_result = 0.855

[[record]]
var = "G11U A56C"
measurement_label = "self-cleavage"
numeric_result = 0.332

